- Test system: ATP;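 also: ATP exposure 15 min at 22 °C before imaging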
- test-method-notes: switch fluorescence ratio, 500 uM ATP over buffer (Cy3 cluster intensity, sum of 5 cycles each) (fold (ratio)); higher = stronger signal-on switching upon ATP binding; sequences stand for … in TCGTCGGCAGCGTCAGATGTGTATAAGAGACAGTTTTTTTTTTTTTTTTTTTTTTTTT…TC
- condition-description: aptamer strand: ATP DNA aptamer (quencher-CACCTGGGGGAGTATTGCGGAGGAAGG + anchor), 100 nM annealed; ATP concentration: 500 uM
Reported values of switch fluorescence ratio for individual entries
Form: value (number only, do not type unit).

Here are 4 sequences together with their reported answers.
1) GGTCTGCAGC : 1
2) AGTATTGTTT : 1.01
3) GAAATTGAGT : 1
4) TATTTAGGGA : 0.987

Ask: Can you share its switch fluorescence ratio? I mean this sequence: `CATTGCAA`
Reply: 1

Ask: Try this sequence next: `TCCTTTATAC`
Reply: 3.09

Ask: Try this sequence next: `GTTCCAAAGC`
Reply: 1.23

Ask: Try this sequence next: `CGGAAAGGGT`
Reply: 1.01

Ask: Try this sequence next: `AATGTTAGGA`
Reply: 0.974

Ask: Try this sequence next: `TTGTTAGGTG`
Reply: 1.13

Ask: Try this sequence next: `ACGTTTATGT`
Reply: 1.02

Ask: Try this sequence next: `ACTGTTTTTA`
Reply: 0.985

Ask: Try this sequence next: `GCGGGATGGC`
Reply: 1.01

Ask: Try this sequence next: `CTGAACTCGA`
Reply: 1.09

Ask: Try this sequence next: `AGTTGTTGGA`
Reply: 1

Ask: Try this sequence next: `CTTGAGCAGG`
Reply: 1.2

Ask: Try this sequence next: `CTAGGGCGCC`
Reply: 0.975

Ask: Try this sequence next: `GGCTTGGAGC`
Reply: 0.996

Ask: Try this sequence next: `GGGCTACTTG`
Reply: 0.988

Ask: Try this sequence next: `GGGGTGTTTG`
Reply: 0.981

Ask: Try this sequence next: `TAGACATCCA`
Reply: 1.05
